Attribution: ChEMBL document CHEMBL4004850

# Experimental details: Inhibition of Mycobacterium tuberculosis T6PP using T6P as substrate by Lineweaver-Burk plot analysis
Quantity: Ki (µM)
State the answer as a number, implicitly in µM.

| Smiles notation | Ki [µM] |
| --- | --- |
| O=S(=O)(O)OC[C@H]1O[C@@H](Oc2ccc(-c3ccccc3)cc2)[C@H](O)[C@@H](O)[C@@H]1O | 1600 |

// returns reported Ki for input "O=S(=O)(O)OC[C@H]1O[C@H](O[C@H]2O[C@H](CO)[C@@H](O)[C@H](O)[C@H]2O)[C@H](O)[C@@H](O)[C@@H]1O"
130

Fill blank: measured Ki of the molecule "O=Cc1cccc(O[C@@H]2O[C@H](COS(=O)(=O)O)[C@@H](O)[C@H](O)[C@H]2O)c1" is ____.
1700

Look up Ki: "CCCCCCCCc1ccc(O[C@H]2O[C@H](COS(=O)(=O)O)[C@@H](O)[C@H](O)[C@H]2O)cc1"
100

###

# System: Mycobacterium tuberculosis
# Experimental details: Inhibition of Mycobacterium tuberculosis T6PP using T6P as substrate assessed as fraction of enzyme unbound with compound by measuring ratio of initial velocities of T6P substrate hydrolysis in presence and absence of compound at 1 mM after 5 mins by BioMol green dye based HTS assay
Decision: Ratio beneath 0.9 gives Yes; Ratio meeting or exceeding 0.9 gives No.

Worked cases, answers included:
| Smiles notation | Measured on | Discrete label |
| --- | --- | --- |
| OC[C@H]1O[C@@H](NC(=S)Nc2ccccc2)[C@H](O)[C@@H](O)[C@@H]1O | Mycobacterium tuberculosis | No |
| OC[C@H]1O[C@@H](Oc2ccccc2)[C@H](O)[C@@H](O)[C@@H]1O | Mycobacterium tuberculosis | Yes |
| O=S(=O)(O)OC[C@H]1O[C@@H](Oc2cccc(CO)c2)[C@H](O)[C@@H](O)[C@@H]1O | Mycobacterium tuberculosis | Yes |

In the following, a different compound is considered.
Hello, I'm reviewing records and need to know if Ratio of "O=S(=O)(O)OC[C@H]1O[C@@H](Oc2cccc3ccccc23)[C@H](O)[C@@H](O)[C@@H]1O" is below 0.9. Could you check?
Yes

###

# Tested on: Mycobacterium tuberculosis
# Experimental details: Inhibition of Mycobacterium tuberculosis T6PP using T6P as substrate assessed as fraction of enzyme unbound with compound by measuring ratio of initial velocities of T6P substrate hydrolysis in presence and absence of compound at 1 mM after 5 mins by BioMol green dye based HTS assay
Quantity: Ratio
Enter the number alone.

Example entries and their recorded answers appear below.
| Smiles notation | Measured on | Ratio |
| --- | --- | --- |
| CO[C@H]1O[C@H](COS(=O)(=O)O)[C@@H](OCc2ccccc2)[C@H](O)[C@H]1O | Mycobacterium tuberculosis | 1.11 |
| O=S(=O)(O)OCc1cccc(O[C@@H]2O[C@H](CO)[C@@H](O)[C@H](O)[C@H]2O)c1 | Mycobacterium tuberculosis | 0.96 |
| OC[C@H]1O[C@@H](n2cc(-c3ccccc3)nn2)[C@H](O)[C@@H](O)[C@@H]1O | Mycobacterium tuberculosis | 0.95 |

Next item in the queue.
Look up Ratio: "CCCCCCCCc1ccc(O[C@@H]2O[C@H](COS(=O)(=O)O)[C@@H](O)[C@H](O)[C@H]2O)cc1"
0.42
